As shown below, each of these binders has a reported Kd value.
Measured on: T1, mouse DLL4 extracellular domain (mouse, UniProt Q9JI71 27-532)
T1 construct: extracellular domain; also called muDLL4 ECD; murine DLL4
Method description: SPR (Biacore)
Experimental: The BIACORE® surface plasmon resonance assay (Biacore, Inc., Piscataway, N.J., US) determines the affinity of antibodies with kinetic measurements of on-rate and off-rate constants. […] The equilibrium dissociation constant KD (M) of the reaction between antibodies and the target antigen was then calculated from the kinetic rate constants by the following formula: KD=Koff/Kₒₙ. Binding was recorded as a function of time and kinetic rate constants were calculated.
Numbers only; they are read as nM.

{"Binder": "h1A11.8 (antibody, V domains shown, humanized IgG; also called VH.1a/VL.2a 1A11) VH: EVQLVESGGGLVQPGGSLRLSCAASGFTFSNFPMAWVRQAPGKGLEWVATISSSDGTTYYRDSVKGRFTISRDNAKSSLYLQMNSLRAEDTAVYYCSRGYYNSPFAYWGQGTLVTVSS VL: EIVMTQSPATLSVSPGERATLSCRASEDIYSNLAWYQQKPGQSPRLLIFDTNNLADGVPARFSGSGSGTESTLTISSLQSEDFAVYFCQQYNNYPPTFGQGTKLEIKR", "Measurement type": "Kd", "Units symbol": "nM", "Value observed": 24}

Would you kindly look at the next entry?
input: State its Kd: h1A11.15 (antibody, V domains shown, humanized IgG; also called VH.2a/VL.1b 1A11) VH: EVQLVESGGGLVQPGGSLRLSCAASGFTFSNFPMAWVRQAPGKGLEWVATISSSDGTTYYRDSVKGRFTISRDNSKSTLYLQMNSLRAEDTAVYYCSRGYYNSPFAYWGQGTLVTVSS VL: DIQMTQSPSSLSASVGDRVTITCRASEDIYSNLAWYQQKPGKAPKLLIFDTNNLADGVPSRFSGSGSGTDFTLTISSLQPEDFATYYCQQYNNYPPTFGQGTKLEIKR
output: 37
